tested on: Wolbachia pipientis; test: Anti-Wolbachia Cell-Based Screen; assay type: functional; design: scale not given: in the data most compounds retested in dose-response had high values; details: 5 µM
Hit rate of the full screen: of about 48,000 compounds, about 13,000 (27%) showed an effect of 50% or more. The list shows a part of the results.
Reported Percent Effect values for the following molecules.
Record the value in %, omitting the unit from your answer.

Here is how some molecules turned out for Percent Effect.
{"Molecule": "CC(C)c1ccc(C(=O)O)cc1S(=O)(=O)Nc1ccc(=O)n(C)c1", "Unit abbrev": "%", "Percent Effect": -9.9}
{"Molecule": "c1c[nH]c(CN2CCCC(Cc3ccc(NC4CCCC4)nn3)C2)n1 (stereo unspecified)", "Unit abbrev": "%", "Percent Effect": 81.53}
{"Molecule": "CN(C)CCOCc1nnc2n1CCN(Cc1ccco1)C2.O=C(O)C(F)(F)F.O=C(O)C(F)(F)F", "Unit abbrev": "%", "Percent Effect": -14.14}

-- ask Answer with the recorded Percent Effect for the molecule listed here: "O=C(O)C(F)(F)F.O=C(O)C(F)(F)F.c1cncc(COCc2nnc3n2CCN(Cc2ccco2)C3)c1"
-- reply -13.62

-- ask Answer with the recorded Percent Effect for the molecule listed here: Nc1ccc(CC2CCCN(Cc3c[nH]cn3)C2)nn1 (stereo unspecified)
-- reply 105.7

-- ask Answer with the recorded Percent Effect for the molecule listed here: c1ccc(C2CN(C3CC3)CC3(CCN(Cc4ncc[nH]4)CC3)C2)cc1 (stereo unspecified)
-- reply -18.37

-- ask Answer with the recorded Percent Effect for the molecule listed here: Fc1ccc(CCC2CCCN(Cc3c[nH]cn3)C2)c(F)c1 (stereo unspecified)
-- reply -3.071

-- ask Answer with the recorded Percent Effect for the molecule listed here: "CN(Cc1nccn1C)S(=O)(=O)c1cccc(C#N)c1"
-- reply 5.7

-- ask Answer with the recorded Percent Effect for the molecule listed here: CC1=C(C(=O)N(C)Cc2noc3c2CCCC3)C(C)NC(=O)N1 (stereo unspecified)
-- reply 99.57

-- ask Answer with the recorded Percent Effect for the molecule listed here: "CCCn1ncc(C(=O)NCc2n[nH]c3c2CCCCC3)c1C"
-- reply -11.8

-- ask Answer with the recorded Percent Effect for the molecule listed here: CC(C)C1CN(Cc2c[nH]cn2)CCCN1CC1CC1 (stereo unspecified)
-- reply 17.94
